This collection of values is drawn from ChEMBL document CHEMBL1921704.

assay: Half life in rat at 1 mg/kg, iv and 2 mg/kg, po
Type: ADME, organism-based
particulars: in vivo
measuredEndpoint: half-life (h)

The following compounds have reported results that may help.
{"compound": "CCC[C@@H](Cc1ccc(C(=O)NCCC(=O)O)cc1)C(=O)c1cc2cc(Cl)ccc2n1-c1cccc(C(F)(F)F)c1", "half-life, h": 1.7}
{"compound": "CCC[C@@H](Cc1ccc(C(=O)NCCC(=O)O)cc1)C(=O)c1cc2cc(Cl)ccc2n1-c1cccc(C(F)(F)F)n1", "half-life, h": 1.1}

a. CCCC(Cc1ccc(C(=O)NCCC(=O)O)cc1)C(=O)c1cc2cc(Cl)ccc2n1-c1ccc(Cl)c(C(F)(F)F)c1 (single isomer, unassigned)
b. CCCCC[C@@H](Cc1ccc(C(=O)NCCC(=O)O)cc1)C(=O)c1cc2cc(Cl)ccc2n1-c1cccc(C(F)(F)F)c1
Request: Please let me know which one, a or b , has a lower measured half-life value. Provide the label of your selected option as the answer.
Result: a
(a: 1.3 h, b: 1.9 h)
